system: Plasmodium falciparum; assay: Antimalarial activity after 96 hrs against azithromycin-resistant Plasmodium falciparum 7G8 by [3H]hypoxanthine uptake; format: functional, organism-based
measured_metric: pIC50
One number for each entry, as −log10 of the molar value.

molecule: CN(C)[C@@H]1C(O)=C(C(N)=O)C(=O)[C@@]2(O)C(O)=C3C(=O)c4c(O)cccc4[C@@](C)(O)[C@H]3C[C@@H]12 [TETRACYCLINE]
target_or_system: Plasmodium falciparum
pIC50: 6.44

I'm hoping you can list pIC50 for every molecule here, please.
1. CC[C@H]1OC(=O)[C@H](C)[C@@H](O[C@H]2C[C@@](C)(OC)[C@@H](O)[C@H](C)O2)[C@H](C)[C@@H](O[C@@H]2O[C@H](C)C[C@H](N(C)C)[C@H]2O)[C@](C)(O)C[C@@H](C)CN(C)[C@H](C)[C@@H](O)[C@]1(C)O [AZITHROMYCIN]
2. C=C(NC(=O)C(=C)NC(=O)c1csc(C2=N[C@@H]3c4csc(n4)[C@H]4NC(=O)c5csc(n5)[C@H]([C@](C)(O)[C@@H](C)O)NC(=O)[C@H]5CSC(=N5)/C(=C/C)NC(=O)[C@H]([C@@H](C)O)NC(=O)c5csc(n5)[C@]3(CC2)NC(=O)[C@H](C)NC(=O)C(=C)NC(=O)[C@H](C)NC(=O)[C@H]([C@@H](C)CC)N[C@@H]2C=Cc3c([C@H](C)O)cc(nc3[C@H]2O)C(=O)O[C@@H]4C)n1)C(N)=O [THIOSTREPTON]
3. C[C@H]1c2cccc(O)c2C(=O)C2=C(O)[C@]3(O)C(=O)C(C(N)=O)=C(O)[C@@H](N(C)C)[C@@H]3[C@@H](O)[C@@H]21 [DOXYCYCLINE]

5.40
6.66
6.22

Origin of measurements: ChEMBL document CHEMBL1156420
